Molecular target: T1, human AXL (full length) (human, UniProt P30530 26-894)
T1 construct: also called TH1021-AXL; TH1021-hAXL
Assay: flow cytometry, A431 cells pre-incubated with 10 µg/mL Gas6 (competitor)
Listed here are binders together with their documented EC50.
Quick reminder: number only, in µg/mL, skip the unit.

IgG1-AXL-148 (antibody, V domains shown) VH: EVQLLESGGGLVQPGGSLRLSCAASGFTFSSYAMTWVRQAPGKGLEWVSAISISGGSTFYADSVKGRFTISRDNSKNTLYLQMNSLRAEDTAVYYCRGYSGYVYDAFDFWGQGTMVTVSS VL: DIQMTQSPSSLSASVGDRVTITCRASQGISNWLAWYQQKPEKAPKSLIYAASSLQSGVPSRFSGSGSGTDFTLTISSLQPEDFATYYCQQYNSYPLTFGGGTKVEIK ... 0.2
IgG1-AXL-183 (antibody, V domains shown) VH: QVQLQQWGAGLLKPSETLSLTCAVYGGSFSGYYWSWIRQPPGKGLEWIGEINQSGSTNYNPSLKSRVTISVDTSKNQFSLKLSSVTAADTSVYYCASGNWDHFFDYWGQGTLVTVSS VL: DIQMTQSPSSVSASVGDRVTITCRASQGISSWLAWYQHKPGKAPKLLIYATSSLQSGVTSRFSGSGSGTDFTLTISSLQPEDFATYYCQQAKSFPWTFGQGTKVEIK ... 1.19

Next binder, please.
Request: Look up and report measured EC50 for this entry: IgG1-AXL-726 (antibody, V domains shown) VH: QVQLQQWGAGLLKPSETLSLTCAIDGGSFSGYYWSWIRQPPGKGLEWIGEISHSGRTNYNPSLKSRVTISIDTSKNQFSLKLSSVAAADTAVYYCARFITMIRGAIITHFDYWGQGALVTVSS VL: DIQMTQSPSSLSASVGDRVTITCRASQGISSWLAWYQQKPEKAPKSLIYAASSLQSGVPSRFSGSGSGTDFTLTISSLQPEDFATYYCQQYHSYPYTFGQGTKLEIK
Response: 0.55

Source listed as patent US20180326084A1.
